- TARGET DESC: Potassium voltage-gated channel subfamily A member 3 (Homo sapiens, UniProt P22001)
- Sequence (P22001 whole entry): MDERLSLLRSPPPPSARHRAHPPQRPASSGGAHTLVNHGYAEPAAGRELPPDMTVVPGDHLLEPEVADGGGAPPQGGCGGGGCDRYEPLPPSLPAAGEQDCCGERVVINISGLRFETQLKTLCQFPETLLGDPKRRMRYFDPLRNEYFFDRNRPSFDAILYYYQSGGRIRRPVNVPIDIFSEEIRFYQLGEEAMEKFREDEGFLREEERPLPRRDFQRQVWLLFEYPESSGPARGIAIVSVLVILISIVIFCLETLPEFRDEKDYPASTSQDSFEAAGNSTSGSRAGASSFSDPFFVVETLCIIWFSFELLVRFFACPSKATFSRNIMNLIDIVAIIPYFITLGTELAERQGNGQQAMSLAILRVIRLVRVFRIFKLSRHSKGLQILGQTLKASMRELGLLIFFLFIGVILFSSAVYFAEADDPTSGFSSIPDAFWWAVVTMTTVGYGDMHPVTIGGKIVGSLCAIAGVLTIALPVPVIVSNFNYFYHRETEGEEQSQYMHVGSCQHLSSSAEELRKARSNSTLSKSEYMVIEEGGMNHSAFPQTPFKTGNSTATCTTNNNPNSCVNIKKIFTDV
- ASSAY PROCEDURE: Inhibition of Kv1.3 expressed in CHO cells by patch-clamp technique
PARAMETER MEASURED: IC50
Your answer should be a number followed by the unit of measure.

Any idea what its IC50 is? The compound is COc1ccc(CCN2C(=O)N(NS(C)(=O)=O)C[C@H]2c2ccc(OC)cc2)cc1 1410 nM

###

- ASSAY PROCEDURE: Aqueous solubility at pH 7.4 by direct UV method
- Format: physicochemical
- CONDITIONS USED: aqueous medium
Measured solubility, listed per entry.
Numeric only. Scale: mg/mL

Below, each entry is followed by its recorded solubility result.
{"MOLECULE": "COc1ccc(CCN2C(=O)N(NS(=O)(=O)Cc3cccnc3)C[C@@H]2c2ccc(OC)cc2)cc1", "solubility [mg/mL]": 0.023}
{"MOLECULE": "COc1ccc(CCN2C(=O)N(NS(C)(=O)=O)CC2c2ccc(Cl)cc2)cc1 (configuration not stated)", "solubility [mg/mL]": 0.004}
{"MOLECULE": "COc1ccc(CCN2C(=O)N(NS(C)(=O)=O)CC2c2ccc(C)cc2)cc1 (configuration not stated)", "solubility [mg/mL]": 0.042}

Any idea what its solubility is? The molecule is COc1ccc(CCN2C(=O)N(NS(C)(=O)=O)CC2c2ccc(C3CC3)cc2)cc1 (configuration not stated) 0.001

Any idea what its solubility is? The molecule is COc1ccc(CCN2C(=O)N(NS(=O)(=O)Cc3ccccc3)C[C@@H]2c2ccc(OC)cc2)cc1 0.001

Any idea what its solubility is? The molecule is COc1ccc(CCN2C(=O)N(NS(C)(=O)=O)C[C@H]2c2ccc(OC)cc2)cc1 0.065

Any idea what its solubility is? The molecule is COc1ccc(CCCN2C(=O)N(NS(C)(=O)=O)C[C@H]2c2ccc(OC)cc2)cc1 0.015

Any idea what its solubility is? The molecule is COc1ccc(CCCN2C(=O)N(NS(C)(=O)=O)C[C@@H]2c2ccc(OC)cc2)cc1 0.018

Any idea what its solubility is? The molecule is COc1ccc(CCN2C(=O)N(NS(=O)(=O)CC#N)C[C@@H]2c2ccc(OC)cc2)cc1 0.1

Any idea what its solubility is? The molecule is CCOc1ccc(CCN2C(=O)N(NS(C)(=O)=O)C[C@@H]2c2ccc(OC)cc2)cc1 0.043

Any idea what its solubility is? The molecule is COc1ccc(CCN2C(=O)N(NS(C)(=O)=O)C[C@@H]2c2ccc(OC)cc2)cc1 0.1

Any idea what its solubility is? The molecule is COCCOc1ccc(C2CN(NS(C)(=O)=O)C(=O)N2CCc2ccc(OC)cc2)cc1 (configuration not stated) 0.1

###

- Tested on: Canis familiaris
- ASSAY PROCEDURE: Plasma concentration in Beagle dog at 1.9 mg/kg, iv
- Format: ADME, organism-based, Canis lupus familiaris
- Parameters: dose 1.9 mg/kg, route intravenous
- CONDITIONS USED: in vivo
PARAMETER MEASURED: concentration
Your answer should be a number followed by the unit of measure.

Any idea what its concentration is? The molecule is COc1ccc(CCN2C(=O)N(NS(C)(=O)=O)C[C@H]2c2ccc(OC)cc2)cc1 4.6 µM
